Cited source: ChEMBL document CHEMBL5346947

# assay-summary: Cmax in cynomolgus monkey at 10 mg/kg, po measured upto 24 hrs by LC-MS/MS analysis
# Assay type: ADME, organism-based, Macaca fascicularis
# Set-up: time < 24 hrs, dose 10 mg/kg, route po
# reported-conditions: in vivo
parameter: Cmax (ng/mL)
Write down the numeric answer in ng/mL and omit the unit.

**Q:** Would you kindly share the measured Cmax for CN(C)C(=O)/C=C/CNCCOc1ccc(/C(=C(/CC(F)(F)F)c2ccccc2)c2ccc3[nH]nc(F)c3c2)cn1 [H3B-6545 FREE BASE] ?
**A:** 420

----------
# experimental-target: Estrogen receptor beta (Homo sapiens, UniProt Q92731)
# Sequence (Q92731 whole entry, the tested form may be a part): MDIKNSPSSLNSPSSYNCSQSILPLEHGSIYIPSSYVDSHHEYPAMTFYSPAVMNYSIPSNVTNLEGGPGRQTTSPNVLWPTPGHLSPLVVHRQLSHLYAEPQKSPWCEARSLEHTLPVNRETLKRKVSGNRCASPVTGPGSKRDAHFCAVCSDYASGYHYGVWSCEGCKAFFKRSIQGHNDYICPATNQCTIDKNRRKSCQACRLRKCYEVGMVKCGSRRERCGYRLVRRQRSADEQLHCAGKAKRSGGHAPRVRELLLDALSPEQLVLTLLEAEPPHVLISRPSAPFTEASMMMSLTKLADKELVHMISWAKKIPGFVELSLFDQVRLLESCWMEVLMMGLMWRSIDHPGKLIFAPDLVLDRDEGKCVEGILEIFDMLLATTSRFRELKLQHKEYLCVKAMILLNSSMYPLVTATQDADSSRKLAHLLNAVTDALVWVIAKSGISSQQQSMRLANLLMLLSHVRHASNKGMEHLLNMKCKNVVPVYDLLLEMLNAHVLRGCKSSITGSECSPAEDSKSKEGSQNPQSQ
# assay-summary: Inhibition of ERbeta (261 to 500 residues) in doxycycline-induced human HEK293 cells incubated overnight by luciferase based assay
parameter: pIC50
Please note pIC50 is a logarithmic value: minus log10 of concentration in mol/L. Answer with that number alone.

**Q:** Would you kindly share the measured pIC50 for O=C(O)c1ccc2c(c1)CCCC(c1ccc(Cl)cc1Cl)=C2c1ccc(O[C@H]2CCN(CCCF)C2)cc1 [AMCENESTRANT] ?
**A:** 8.08

----------
# assay-summary: Half life in Sprague-Dawley rat at 5 mg/kg, iv measured upto 24 hrs by LC-MS/MS analysis
# Type: ADME, organism-based
# reported-conditions: in vivo
parameter: half-life

**Q:** Would you kindly share the measured half-life for CN(C)C(=O)/C=C/CNCCOc1ccc(/C(=C(/CC(F)(F)F)c2ccccc2)c2ccc3[nH]nc(F)c3c2)cn1 [H3B-6545 FREE BASE] ?
**A:** 2.3 h

----------
# assay-summary: AUC in cynomolgus monkey at 10 mg/kg, po measured upto 24 hrs by LC-MS/MS analysis
# Format: ADME, organism-based, Macaca fascicularis
# Parameters: dose 10 mg/kg, time < 24 hrs, route po
# reported-conditions: in vivo
parameter: AUC at 24 h (ng·h/mL)
Write down the numeric answer in ng·h/mL and omit the unit.

**Q:** Would you kindly share the measured AUC at 24 h for CN(C)C(=O)/C=C/CNCCOc1ccc(/C(=C(/CC(F)(F)F)c2ccccc2)c2ccc3[nH]nc(F)c3c2)cn1 [H3B-6545 FREE BASE] ?
**A:** 2500

----------
# assay-summary: AUC (0-24hrs) in human MCF7 cells xenografted in 17beta-estradiol-treated NOD/SCID mouse model at 3 mg/kg, po and measured after 18 hrs post last dose
# reported-conditions: in vivo
parameter: AUC(0-t) at 18 h

**Q:** Would you kindly share the measured AUC(0-t) at 18 h for O=C1CC[C@H](N2Cc3cc(N4CCN(CC5CCN(c6ccc([C@@H]7c8ccc(O)cc8CC[C@@H]7c7ccccc7)cc6)CC5)CC4)ccc3C2=O)C(=O)N1 [VEPDEGESTRANT] ?
**A:** 658 ng·h/mL

----------
# assay-summary: Cmax in Sprague-Dawley rat at 10 mg/kg, po measured upto 24 hrs by LC-MS/MS analysis
# Format: ADME, organism-based
# Design: dose 10 mg/kg, time < 24 hrs, route po
# reported-conditions: in vivo
parameter: Cmax (ng/mL)
Write down the numeric answer in ng/mL and omit the unit.

**Q:** Would you kindly share the measured Cmax for CN(C)C(=O)/C=C/CNCCOc1ccc(/C(=C(/CC(F)(F)F)c2ccccc2)c2ccc3[nH]nc(F)c3c2)cn1 [H3B-6545 FREE BASE] ?
**A:** 1200

----------
# assay-summary: Oral bioavailability in cynomolgus monkey at 10 mg/kg measured upto 24 hrs by LC-MS/MS analysis
# Type: ADME, organism-based, Macaca fascicularis
# reported-conditions: in vivo
parameter: bioavailability (%)
Write down the numeric answer in % and omit the unit.

**Q:** Would you kindly share the measured bioavailability for CN(C)C(=O)/C=C/CNCCOc1ccc(/C(=C(/CC(F)(F)F)c2ccccc2)c2ccc3[nH]nc(F)c3c2)cn1 [H3B-6545 FREE BASE] ?
**A:** 26

----------
# assay-summary: Cmax in human MCF7 cells xenografted in 17beta-estradiol-treated NOD/SCID mouse model at 3 mg/kg, po and measured after 18 hrs post last dose
# reported-conditions: in vivo
parameter: Cmax (ng/mL)
Write down the numeric answer in ng/mL and omit the unit.

**Q:** Would you kindly share the measured Cmax for O=C1CC[C@H](N2Cc3cc(N4CCN(CC5CCN(c6ccc([C@@H]7c8ccc(O)cc8CC[C@@H]7c7ccccc7)cc6)CC5)CC4)ccc3C2=O)C(=O)N1 [VEPDEGESTRANT] ?
**A:** 84
